System: K4 kissing-loop RNA reporter;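 also: bound reporter read as fluorescence of individual clusters on recovered sequencing chips by microscopy, with normalized cluster intensities fitted with a binding model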
Assay: apparent KD of K4 kissing-loop reporter; higher = weaker reporter binding
Settings: Eterna round: R107; input ligand: tryptophan 2.4 mM
measured_attribute: apparent KD of K4 kissing-loop reporter (nM)

GCCGUAGAUGGAAGGAGCGUGCCUUUCAGUUAUAGUGAUGUUAUAACCGAGGAACGGUUGGCACAGGUAGGUCGCCAUCUACGGC : 121
AGUAGAGCAUCAGAUACCAGACUGAACUGAUGGUAAGGAGUGAUGUUCCUUAAUCAGCUAGUCCCUUGGCAGCUGAUAAUAGUCA [Theo B SS t3] : 222
CUAUAUAGUGAUGUUAUAUAGAUAACAGAUACCAGCUAGAAAACUAGCCCUUGGCAGCUGAUAAGGGAAAGUAUAAUUGUGUAAA [AstroSTH-A#DifdesignED20.18] : 73.7
UGUCGAGUGAUGUUCGAUGUGGUGCAUUCAGAGGAUAUAGGGUGGGCUAGAAGGCUGAAAAGUGCUUCGAGUGAUGUUCGAAGAU [Exclusion FMN A GF8] : 110
AGACCACAAAGUGGUCAGUGUUCGCUGCCGCGAGGACCGGUACGGCCGCCACUCGCGAGUGAUGUUCGCGAGGGCAGCGAACACA [Omei KL Tryp A Exc A v4] : 106
GAAUAAUAUGUACCAGUGAUGUUGGUACAACGAGGACCGGUACGGCCGCCACUCGGAUACGAGUGGAUACAUCACUGACCAUUCG [(H1)-(H2)-(Trp1)-(Trp2)-(T)'-(H)'-(T)''_Design9] : 252

* * *

Tested on: MS2 coat protein
Experiment: apparent KD of MS2 coat protein; designed switch direction (-1 OFF switch, 1 ON switch): -1; higher = weaker reporter binding
Settings: Eterna round: R95; input ligand: microRNA oligo, concentration not stated
In this section, each of the sequences is paired with its reported apparent KD of MS2 coat protein.
measured_attribute: apparent KD of MS2 coat protein (nM)

GAAAAGGUAGGAUAUACGAAAAAAAAGGGUUGAAAAAAAACACAUGAGGAUCACCCAUGUAGAAGGACCAAAAG [salish99_ex2_r3_080] (puzzle: Exclusion 2) : 19.7
AAAUAAUCAGGAUAUACAUGAGGAUCACCCAUGUACCUCUUGUACGAGGGCCGCCCGUGUAGAAGGGAUGACAA [Arralara] (puzzle: Exclusion 3) : 40.1
AGUAGUAGUAUCCGUUCUUACAUGAGGAUCACCCAUGUUUCUUGACGUGCACGCGAUGCUCGUCAGACUACCAGAUG [salish99_TOv1_r3_055] (puzzle: Sensor v3, turn-off variant 1) : 88.4

* * *

System: MS2 coat protein
Test: apparent KD of MS2 coat protein; designed switch direction (-1 OFF switch, 1 ON switch): 1; higher = weaker reporter binding
Conditions: input ligand: microRNA oligo, concentration not stated
measured_attribute: apparent KD of MS2 coat protein (µM)

GAGCUCGUGUGAGGAUAUGCCGCCGUUUCGGCUGCAGAAGGUGCUACGUUACAUGAGGAUCACCCAUGUCUCUGUUGUUUCGUG [salish99_SSNG1_r04_958] (Eterna round: R96, puzzle: Same State NG 1) : 0.0204
AACAUGAGGAUCACCCAUGUGGAAUACUGAAGCAGCUCAGGGAAGGAUAUGGUUGACACCCUCGACCAGAAGGUCCAAAUUAAA [Onarar] (Eterna round: R96, puzzle: Same State NG 3) : 0.0982
UUGCUCGUGUGAGGAUAUGCCGCCGUUUCGGCUGCAGAAGGUACUCUUGUACAUGAGGAUCACCCAUGUCUCUGUUGUUUCGUG [salish99_SSNG1_r04_938] (Eterna round: R96, puzzle: Same State NG 1) : 0.0436
GCGAAAGCCGUAGGAUAUGUAGGAUAUGGCGAGAGCUAAGCUUGGAAGUCACUUCAGCCAGAAGGACAGAAGGACGCCGAAAGG [pwkr ssNG2 2FMN + F9.15] (Eterna round: R96, puzzle: Same State NG 2) : 0.387
CCGUAAUAUGGAGGAUAUGGAGCCUUAUUGGCUCCAGAAGGUCAAAACACAUGAGGAUCACCCAUGUCGGCGGUCAAUAGACCG [Eli NG1ss - 75] (Eterna round: R96, puzzle: Same State NG 1) : 0.0429
ACAUGAGACAUAGGAUAUGUUGUACCUACAUGUGACAUGAGGAUCACCCAUGUGGUAAGUAUGAGACAGAAGGAUGAGAUAUGU [Equivalence 30 - Jieux - Same State NG 2] (Eterna round: R96, puzzle: Same State NG 2) : 0.0434
GUGGCCUAGGCACAGGAUAUGUUUCUCGUAACAUGAGGAUCACCCAUGUGCCUUUGAGAUUUUAUGCAGAAGGGUGCACGCCACG [JL Atiinbe mod 04] (Eterna round: R96, puzzle: Same State 2) : 0.214
UGGUACAUGGGAGGAUAUCUCAUGGAGACAUGAGGAUCACCCAUGUAGUAGGACCGGAAACGGUGAGAGAAGGCCCAUGUACCU [JL SSNG1 3.73] (Eterna round: R96, puzzle: Same State NG 2) : 0.0405
GCCAUCGCAUGAGGAUAUGGCACCGUUUCGGUGCCAGAAGGCAUGUCAAAUGACAUGAGGAUCACCCAUGUAGUUAAGAUGGCA [JL Fiskers NG1ss - 33 mod 9] (Eterna round: R96, puzzle: Same State NG 1) : 0.417
